Experiment: stability of the substrates / oxidation by periodate in the presence of BSA
Assay type: physicochemical
Details: aqueous media
From the text: The oxidation of 1,2 diols and amino alcohols by periodate in an aqueous medium is a reaction that is well known to one skilled in the art. This reaction provides a purely chemical alternative for the conversion of alcohols into carbonyl groups in aqueous medium with a high chemoselectivity in the presence of other functional groups. The substrates acetates 1, amide 5 and epoxide 6 are stable in the presence of periodate and BSA without the aqueous media. […]
reported endpoint: stability in the presence of periodate and BSA

{"molecule": "NCC(O)CCOc1ccc2ccc(=O)oc2c1 (stereo not shown) [amino alcohol 6, 1-Amino-4-(7-coumarinyloxy)-2-butanol]", "result": "release umbelliferone"}
{"molecule": "O=c1ccc2ccc(OCC[C@H]3CO3)cc2o1 [epoxide 6, (S)-4-(7-coumarinyloxy)-1,2-epoxybutane]", "result": "stable"}
{"molecule": "O=C(Cc1ccccc1)NCC(O)CCOc1ccc2ccc(=O)oc2c1 (stereo not shown) [amide 5]", "result": "stable"}
{"molecule": "O=c1ccc2ccc(OCC[C@H](O)CO)cc2o1 [diol 2, (S)-4-(7-coumarinyloxy)-1,2-butanediol]", "result": "release umbelliferone"}
